// data source = patent US20140058068A1

Target: T1, GHRH receptor of human pituitary membrane homogenates (human, UniProt Q02643 23-423)
T1 construct: whole, on cells; Native receptor in pituitary membrane homogenates, not intact cells; also called hGH-RH receptor
T1 sequence (looked up): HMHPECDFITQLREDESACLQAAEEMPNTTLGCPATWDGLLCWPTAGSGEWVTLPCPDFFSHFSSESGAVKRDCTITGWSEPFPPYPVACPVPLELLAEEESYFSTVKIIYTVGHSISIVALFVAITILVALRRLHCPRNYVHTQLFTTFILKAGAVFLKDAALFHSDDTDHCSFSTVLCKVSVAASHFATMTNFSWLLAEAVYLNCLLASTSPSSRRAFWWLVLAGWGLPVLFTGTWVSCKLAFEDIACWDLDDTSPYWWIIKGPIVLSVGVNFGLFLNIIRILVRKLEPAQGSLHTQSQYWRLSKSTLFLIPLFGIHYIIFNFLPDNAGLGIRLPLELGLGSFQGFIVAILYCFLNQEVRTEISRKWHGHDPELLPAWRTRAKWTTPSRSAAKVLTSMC
Test: radioligand competition, 125I-JV-1-42 (~0.2 nM) as competitor, human pituitary membrane homogenates
Square brackets hold non-standard residues; d marks the D form. Ends that are not written are not given here. * marks the point of attachment. NMeY = CN[C@@H](Cc1ccc(O)cc1)C(=O)O; Agmatine = N=C(N)NCCCCN*; Nle = CCCC[C@H](N)C(=O)O; Orn = NCCC[C@H](N)C(=O)O; Abu = CC[C@H](N)C(=O)O
OUTCOME MEASURE: IC50 (nM)

BINDER: [NMeY]ADAIFTQSYR[Orn]VL[Abu]QLSAR[Orn]LLQDI[Nle]D[Agmatine] (also called P20356) [[N-Me-Tyr^1, Gln^8, Orn^12, Abu^15, Orn^21, Nle^27, Asp^28, Agm^29]hGH-RH(1-29)]
VALUE: 0.01
